System: OVCAR-5 ovarian
PROCEDURE_TEXT: NCI tumour cell line growth inhibition, 48 h
# maps each entry to its GI50
ATTRIBUTE_MEASURED: GI50

INSERT INTO measurements (molecule, result) VALUES
  ('O=C(/C=C/c1cccc(Cl)c1)c1ccccc1', '11.2 µM'),
  ('O=C(N/N=C/c1coc2ccc(Cl)cc2c1=O)c1cc(O)c(O)c(O)c1', '24.6 µM'),
  ('COc1cc(/C=C/C(=O)c2cccc(-n3cc(-c4ccccc4)[nH]c3=O)c2)ccc1O', '6.25 µM'),
  ('C[C@H]1CCC/C=C/[C@@H]2C[C@H](O)C[C@H]2[C@H](O)C(O)C(O)C(=O)O1 (some centres not stated)', '6.24 µM'),
  ('CC(=O)OC1C(C)OC(Oc2c(-c3ccc(O)cc3)oc3cc(O)cc(O)c3c2=O)C(O)C1OC(C)=O (configuration not stated)', '> 100 µM'),
  ('N#C/C(=C\c1ccccn1)c1nc2ccccc2o1', '31.9 µM'),
  ('C=CCn1c(C)nc2cc(Nc3nc(N4CCCC4)nc4nc[nH]c34)ccc21', '> 100 µM'),
  ('O=C1/C(=C/c2ccc([N+](=O)[O-])s2)Oc2ccc(Br)cc21', '1.07 µM'),
  ('C=CC(=O)N1CCN(c2nc(OC[C@@H]3CCCN3C)nc3c(F)c(-c4nc(N)cc(C)c4C(F)(F)F)c(Cl)cc23)[C@@H](C)C1', '9.68 µM'),
  ('Cc1nc2ccccc2c(/C=C/c2ccc(F)cc2)c1C(=O)/C=C/c1ccccc1', '1.92 µM'),
  ('O=NN(CC(=O)NNc1ccccc1)CC(=O)NNc1ccccc1', '> 100 µM'),
  ('COc1ccc(C(=O)c2no[n+]([O-])c2C(=O)c2ccc(OC)cc2)cc1', '10.6 µM');

###

System: SF-268 CNS
PROCEDURE_TEXT: NCI tumour cell line growth inhibition, 48 h
# maps each entry to its TGI
ATTRIBUTE_MEASURED: TGI

INSERT INTO measurements (molecule, attribute_measured, result) VALUES
  ('O=C(O)CNc1ncc2c(n1)-c1ccccc1OC2', 'TGI', '> 100 µM'),
  ('COc1ccc(C2=NC(CO)[C@H](c3ccccc3)O2)cc1OC (some centres not stated)', 'TGI', '> 100 µM'),
  ('O=C(Nc1cccc2[nH]c(C(F)(F)F)nc12)c1ccc(Br)cc1F', 'TGI', '21.4 µM'),
  ('O=C1C=CC2(C=C1)O[C@H](CCc1ccccc1)[C@@H](CCc1ccccc1)O2', 'TGI', '> 100 µM'),
  ('O=C(NC1C(=O)NC(CCc2ccccc2)NC1=O)OCc1ccccc1 (configuration not stated)', 'TGI', '> 100 µM'),
  ('CCOP(=O)(OCC)/C(C#N)=C/c1cccn1C', 'TGI', '> 100 µM'),
  ('COC(=O)C1=CCC[C@H]2[C@@]1(COC(C)=O)CC[C@@H](C)[C@]2(C)CC(=O)c1ccoc1', 'TGI', '> 50 µM'),
  ('CC(C)(C)C1CC[C@H](O)[C@H]([C@@H](O)CC2CC(=O)N(c3ccccc3)C(=O)C2)C1 (some centres not stated)', 'TGI', '> 100 µM'),
  ('O=NN(CC(=O)NNc1ccccc1)CC(=O)NNc1ccccc1', 'TGI', '> 100 µM'),
  ('C[C@]12CC/C(=N\OCCN3CCCC3)C=C1CCC1C2CC[C@@]2(C)C1CC[C@]2(C)O (some centres not stated)', 'TGI', '31.9 µM'),
  ('O=C1NCC2(CCN(CC3COc4ccccc4O3)CC2)N1c1ccccc1 (configuration not stated)', 'TGI', '> 100 µM'),
  ('CCOC(=O)C(c1ccsc1)P(=O)(OCC)OCC (configuration not stated)', 'TGI', '69.6 µM'),
  ('O=C(Cn1c(C(=O)/C=C/c2ccc(Cl)c(Cl)c2)nc2ccccc21)c1ccccc1', 'TGI', '> 100 µM'),
  ('CC1=C(C(=O)Nc2cc(F)c(F)cc2F)C(c2ccc(N(C)C)cc2)C(C(=O)Nc2cc(F)c(F)cc2F)=C(C)N1', 'TGI', '> 100 µM'),
  ('NC(=O)c1c(NC(=O)c2ccc(C(F)(F)F)cc2Cl)sc2c1CCC(=O)C2', 'TGI', '15.7 µM'),
  ('COc1cc2c(cc1OCCCN1CCOCC1)N=C[C@@H]1CCCN1C2=O', 'TGI', '> 100 µM'),
  ('COC(=O)/C=C1/OC(c2ccccc2)=C(Br)C1=O', 'TGI', '> 100 µM'),
  ('C(#Cc1ccccc1C#Cc1cnccn1)c1cnccn1', 'TGI', '55.3 µM'),
  ('COc1ccc(/C(=N/O)c2cc(F)c(F)c(OC)c2F)cc1O', 'TGI', '> 100 µM'),
  ('Cc1ccc(-c2csc3ncnc(Nc4cccc(O)c4)c23)cc1', 'TGI', '> 100 µM'),
  ('O=c1oc2cc(O)ccc2cc1-c1nc2ccccc2o1', 'TGI', '> 100 µM'),
  ('CC(C)OC(=O)NNc1c(Cl)cc(Cl)cc1Cl', 'TGI', '> 100 µM');
